Where do these numbers come from? They come from ChEMBL document CHEMBL1821599.

Molecular target: Somatostatin receptor type 1 (Homo sapiens)
Sequence (P30872 whole entry): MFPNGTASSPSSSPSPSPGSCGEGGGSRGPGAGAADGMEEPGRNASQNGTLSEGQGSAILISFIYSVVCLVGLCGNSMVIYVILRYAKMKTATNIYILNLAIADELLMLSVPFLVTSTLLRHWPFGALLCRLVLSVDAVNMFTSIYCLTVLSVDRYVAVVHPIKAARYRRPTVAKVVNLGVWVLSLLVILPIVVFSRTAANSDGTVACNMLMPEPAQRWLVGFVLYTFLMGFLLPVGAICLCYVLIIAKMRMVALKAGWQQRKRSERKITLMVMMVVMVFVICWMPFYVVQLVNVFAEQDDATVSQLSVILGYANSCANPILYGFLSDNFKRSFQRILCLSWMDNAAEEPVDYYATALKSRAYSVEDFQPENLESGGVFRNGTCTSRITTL
Assay: Displacement of 125I-[LTT]-SRIF-28 from human sst1 receptor in CHO cells after 2 hrs by autoradiography
Here the recorded pIC50 is given for each entry.
Friendly reminder that pIC50 comes from taking -log10 of the concentration in mol/L.

Past entries and their recorded results:
* C[C@H](N)C(=O)NCC(=O)N[C@H]1CSSC[C@@H](C(=O)O)NC(=O)[C@H](CO)NC(=O)[C@H]([C@@H](C)O)NC(=O)[C@H](Cc2ccccc2)NC(=O)[C@H]([C@@H](C)O)NC(=O)[C@H](CCCCN)NC(=O)[C@@H](Cc2ccc3ccccc3c2)NC(=O)[C@H](Cc2ccccc2)NC(=O)[C@H](Cc2ccccc2)NC(=O)[C@H](CC(N)=O)NC(=O)[C@H](CCCCN)NC1=O | 8.39
* C[C@H](N)C(=O)NCC(=O)N[C@H]1CSSC[C@@H](C(=O)O)NC(=O)[C@H](CO)NC(=O)[C@H]([C@@H](C)O)NC(=O)[C@H](Cc2ccccc2)NC(=O)[C@H]([C@@H](C)O)NC(=O)[C@H](CCCCN)NC(=O)[C@@H](Cc2ccc(O)cc2)NC(=O)[C@H](Cc2ccccc2)NC(=O)[C@H](Cc2ccccc2)NC(=O)[C@H](CC(N)=O)NC(=O)[C@H](CCCCN)NC1=O | 6.85
* C[C@@H](O)[C@@H]1NC(=O)[C@H](CCCCN)NC(=O)[C@@H](Cc2ccc3ccccc3c2)NC(=O)[C@H](Cc2ccccc2)NC(=O)[C@H](Cc2ccccc2)NC(=O)[C@@H](N)CSSC[C@@H](C(=O)O)NC(=O)[C@H](Cc2ccccc2)NC1=O | 6.22
* C[C@H](N)C(=O)NCC(=O)N[C@H]1CSSC[C@@H](C(=O)O)NC(=O)[C@H](CO)NC(=O)[C@H]([C@@H](C)O)NC(=O)[C@H](Cc2ccccc2)NC(=O)[C@H]([C@@H](C)O)NC(=O)[C@H](CCCCN)NC(=O)[C@H](Cc2ccc(O)cc2)NC(=O)[C@H](Cc2ccccc2)NC(=O)[C@H](Cc2ccccc2)NC(=O)[C@H](CC(N)=O)NC(=O)[C@H](CCCCN)NC1=O | 6.86

Kindly review the next compound as well.
Request: Fill in: pIC50 of `C[C@H](N)C(=O)NCC(=O)N[C@H]1CSSC[C@@H](C(=O)O)NC(=O)[C@H](CO)NC(=O)[C@H]([C@@H](C)O)NC(=O)[C@H](Cc2ccccc2)NC(=O)[C@H]([C@@H](C)O)NC(=O)[C@H](CCCCN)NC(=O)[C@H](Cc2ccc3ccccc3c2)NC(=O)[C@H](Cc2ccccc2)NC(=O)[C@H](Cc2ccccc2)NC(=O)[C@H](CC(N)=O)NC(=O)[C@H](CCCCN)NC1=O` is ___
Result: 8.57
